- Experiment: Single dose oral pharmacokinetic studies in rabbits
- Assay type: in vivo, male New Zealand White rabbits
- Experimental Setup: male, New Zealand White, rabbit, plasma, po, 90 mg/kg, 72.00 h; standard suspension, 90 mg/kg b.w. oral
- Description: The studies detailed below (and referred to as Examples 2 to 8) were conducted to provide comparative single dose oral pharmacokinetics data for Compound 1, as well as sodium and potassium salts of that compound, using non-coated and enteric-coated capsules in male New Zealand White rabbits. […] Concentrations of the analyte of Compound 1 in New Zealand white rabbits was determined using an API 3200 Q-trap LC-MS/MS system. […]
Value Kind: concentration at 72 h
Number first, unit second: that is the form wanted.

Problem: Dear colleague, I am looking for the recorded concentration at 72 h of the following compound: O=C(Nc1nc(=O)n(Cc2ccc(Cl)cc2)s1)c1ccc(Cl)cc1
Solution: 3030 ng/mL

From: patent US12162850B2
